Data provenance: ChEMBL document CHEMBL4130455

assayExplanation: Half life in Balb/c mouse at 1 mg/kg, iv administered as bolus by LC-MS/MS analysis
Assay type: ADME, organism-based
experimentalConditions: in vivo
experimentalEndpoint: half-life (h)
Number only, in h; omit the unit.

Data request: Supply reported half-life belonging to this compound: COC(=O)C1=C2C[C@H](NS(C)(=O)=O)CN2C(c2nccs2)=N[C@H]1c1ccc(F)cc1Cl
Data returned: 1.1

====

assayExplanation: Kinetic solubility of the compound
Type: physicochemical
experimentalConditions: read-out: Kinetic_solubility
experimentalEndpoint: solubility kinetic
Value and unit, in that order.

Data request: For COC(=O)C1=C2C[C@H](NS(C)(=O)=O)CN2C(c2nccs2)=N[C@H]1c1ccc(F)cc1Cl , write its solubility kinetic.
Data returned: 22 µM

====

assayExplanation: Ratio of AUC (0 to 4 hrs) in Balb/c mouse liver to plasma administered orally by LC-MS/MS analysis
Format: ADME
experimentalConditions: liver and plasma, po, read-out: Ratio AUC
experimentalEndpoint: Kp
API doc: respond with a numeric literal and nothing else, no unit.

Data request: Hello, please tell me recorded Kp for this one: COC(=O)C1=C2C[C@H](NS(C)(=O)=O)CN2C(c2nccs2)=N[C@H]1c1ccc(F)cc1Cl
Data returned: 10

====

systemUnderTest: Core antigen (Hepatitis B virus, UniProt Q03732)
Sequence (Q03732 whole entry): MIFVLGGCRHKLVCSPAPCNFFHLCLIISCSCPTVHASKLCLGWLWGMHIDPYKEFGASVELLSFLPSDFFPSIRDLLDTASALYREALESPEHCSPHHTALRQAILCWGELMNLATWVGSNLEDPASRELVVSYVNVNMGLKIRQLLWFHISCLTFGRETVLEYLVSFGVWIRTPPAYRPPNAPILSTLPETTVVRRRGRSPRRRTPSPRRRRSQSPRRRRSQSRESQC
assayExplanation: Inhibition of HBV C150-Bodipy FL N-(2-aminoethyl) maleimide labeled capsid assessed as reduction in NaCl-induced capsid assembly preincubated for 15 mins followed by NaCl addition measured after 1 hr by fluorescence quenching assay
experimentalEndpoint: pIC50
Keep it numeric: pIC50 is minus log10 of the concentration in mol/L.

Data request: Param request: pIC50 | system Core antigen (Hepatitis B virus, UniProt Q03732) | item COC(=O)C1=C2C[C@H](NS(C)(=O)=O)CN2C(c2nccs2)=N[C@H]1c1ccc(F)cc1Cl
Data returned: 6.10
